meta.source: the supplement of paper PMC12645437

# TESTED SYSTEM: T1, CRBN, Q96SW2;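 note: pooled lentiviral library of zinc finger degron-EGFP fusions in mCherry-positive Jurkat cells, FACS-sorted after compound exposure, with degron abundance counted by next-generation sequencing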
# T1 chain: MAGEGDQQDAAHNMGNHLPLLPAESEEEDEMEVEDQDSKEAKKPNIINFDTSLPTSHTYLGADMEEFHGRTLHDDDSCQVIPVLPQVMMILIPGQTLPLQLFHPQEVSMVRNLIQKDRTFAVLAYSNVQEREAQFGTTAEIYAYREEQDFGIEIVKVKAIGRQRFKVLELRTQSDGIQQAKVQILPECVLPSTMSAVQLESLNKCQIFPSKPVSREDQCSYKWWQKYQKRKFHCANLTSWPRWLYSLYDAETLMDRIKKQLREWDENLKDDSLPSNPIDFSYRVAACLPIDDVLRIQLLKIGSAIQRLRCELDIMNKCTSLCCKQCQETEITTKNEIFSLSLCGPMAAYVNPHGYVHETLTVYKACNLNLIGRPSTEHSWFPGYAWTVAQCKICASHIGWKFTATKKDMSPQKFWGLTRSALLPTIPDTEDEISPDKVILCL
# PROCEDURE TEXT: log2 fold change of degron read counts, EGFP-low vs EGFP+ sorted cells (limma voom), compound-induced degradation; higher = more compound-induced degradation of the degron-EGFP fusion; degrons are variants of IKZF1/3 zinc finger 2; compound dose not given here
# TEST CONTEXT: Jurkat; 18 h; compound: compound 22 (5-morpholino-thalidomide)
In all, about 8,300 sequences were measured (“log2 fold change of degron read counts, EGFP-low vs EGFP+ sorted cells (limma voom), compound-induced degradation”: median about -1.1, highest 2% from about 3.2 on). This excerpt belongs to a sample that is enriched for the highest values.
Label condition met when log2 fold change of degron read counts is at or above -0.6; anything below gets condition not met.

Answered cases to consult:
>  <ITEM SEQUENCE>
FHCEVCGAVFTQKGNLLRHIKL [46F_47H_49E_50V_52G_53A_54V_55F_67L_, Q9UKT9]

>  <LABEL VALUE>
condition met

$$$$
>  <ITEM SEQUENCE>
FACEVCGAVFTQKGNLLRHIKL [46F_47A_49E_50V_52G_53A_54V_55F_67L_, Q9UKT9]

>  <LABEL VALUE>
condition met

$$$$
>  <ITEM SEQUENCE>
FSCPICGRIFTQKGNLLRHIKL [46F_47S_49P_50I_52G_53R_54I_55F_67L_, Q9UKT9]

>  <LABEL VALUE>
condition met

$$$$
>  <ITEM SEQUENCE>
FLCEVCGAVFTQKGNLLRHIKL [46F_47L_49E_50V_52G_53A_54V_55F_67L_, Q9UKT9]

>  <LABEL VALUE>
condition not met

$$$$

Consider the record given below.
Query: Form field: log2 fold change of degron read counts at least -0.6? Entry: FNCEVCGAAFTQKGNLLRHIKL [46F_47N_49E_50V_52G_53A_54A_55F_67L_, Q9UKT9]
Reply: condition met
